# System: PC-3
# test: Cytotoxicity against human PC3 cells
# Type: cell-based
recorded-metric: Activity

Record excerpt, results attached:
COc1c(O)cc2oc(-c3ccc(O)cc3)c(O[C@@H]3O[C@H](CO[C@@H]4O[C@@H](C)[C@H](O)[C@@H](O)[C@H]4OC(C)=O)[C@@H](O)[C@H](O)[C@H]3O)c(=O)c2c1O ... Non-toxic
COc1cc(O[C@H]2O[C@H](CO[C@@H]3O[C@H](CO)[C@@H](O)[C@@H](O)[C@H]3O)[C@@H](O)[C@H](O)[C@H]2O)c2c(O)c3c(=O)oc(C)cc3c(OC)c2c1 ... Non-toxic
COc1c(O)cc2oc(-c3ccc(O)cc3)c(O[C@@H]3O[C@H](CO)[C@@H](O)[C@H](O)[C@H]3O[C@@H]3O[C@@H](C)[C@H](O)[C@@H](O)[C@H]3O)c(=O)c2c1O ... Non-toxic
COc1c2cc(O)cc(O[C@@H]3O[C@H](CO[C@@H]4O[C@H](CO)[C@@H](O)[C@H](O)[C@H]4O)[C@@H](O)[C@H](O)[C@H]3O)c2c(O)c2c(=O)oc(C)cc12 ... Non-toxic

Can you share its Activity? I mean this compound: COc1cc(/C=C/C(=O)OC[C@H]2O[C@@H](Oc3c(-c4ccc(O)cc4)oc4cc(O)c(OC)c(O)c4c3=O)[C@H](O)[C@@H](O)[C@@H]2O)ccc1O Non-toxic

* * *

# Test system: PC-3
# test: Cytotoxicity against human PC3 cells
# Type: cell-based
recorded-metric: Activity

COc1c(O)cc2oc(-c3ccc(O)c(O)c3)c(O[C@@H]3O[C@H](CO[C@@H]4O[C@@H](C)[C@H](O)[C@@H](O)[C@H]4OC(C)=O)[C@@H](O)[C@H](O)[C@H]3O)c(=O)c2c1O ... Non-toxic
COc1c(O)cc2oc(-c3ccc(O)cc3)c(O[C@@H]3O[C@H](CO[C@@H]4O[C@@H](C)[C@H](O)[C@@H](O)[C@H]4O)[C@@H](O)[C@H](O)[C@H]3O)c(=O)c2c1O ... Non-toxic
COc1cc2oc(-c3ccc(O)c(O)c3)c(O[C@@H]3O[C@H](CO[C@@H]4O[C@@H](C)[C@H](O)[C@@H](O)[C@H]4O)[C@@H](O)[C@H](O)[C@H]3O)c(=O)c2c(O)c1O ... Non-toxic
